Here the recorded decapping rate lower than that of N-7413 is given for each entry.
SYSTEM: DCP2 enzyme (Schizosaccharomyces pombe)
Construct: purchased New England Biolabs
ASSAY_REMARKS: Decapping enzyme stability test
Format: biochemical
PROTOCOL_CONDITIONS: difference to N-7413

| MOLECULE | decapping rate lower than that of N-7413 |
| --- | --- |
| COC1C(OP(=O)([O-])OC[C@H]2O[C@@H](n3cnc4c(=O)[nH]c(N)nc43)C(O)C2O)[C@@H](COP(=O)(O)OP(=O)(O)OP(=O)(O)OC[C@]23O[C@@H]([n+]4cn(C)c5c(=O)[nH]c(N)nc54)C(O[C@H]2CC(=O)N(C)C)C3O)O[C@H]1n1cnc2c(N)ncnc21 (stereo partly shown) | 36.8% |
| COC1C(OP(=O)([O-])OC[C@H]2O[C@@H](n3cnc4c(=O)[nH]c(N)nc43)C(O)C2O)[C@@H](COP(=O)(O)OP(=O)(O)OP(=O)(O)OC[C@]23O[C@@H]([n+]4cn(C)c5c(=O)[nH]c(N)nc54)C(O[C@H]2CCS(=O)(=O)N(C)C)C3O)O[C@H]1n1cnc2c(N)ncnc21 (stereo partly shown) | 37.4% |
| COC1C(OP(=O)([O-])OC[C@H]2O[C@@H](n3cnc4c(=O)[nH]c(N)nc43)C(O)C2O)[C@@H](COP(=O)(O)OP(=O)(O)OP(=O)(O)OC[C@]23O[C@@H]([n+]4cn(C)c5c(=O)[nH]c(N)nc54)C(O[C@H]2CCS(C)(=O)=O)C3O)O[C@H]1n1cnc2c(N)ncnc21 (stereo partly shown) | 35.8% |
| COC1C(OP(=O)([O-])OC[C@H]2O[C@@H](n3cnc4c(=O)[nH]c(N)nc43)C(O)C2O)[C@@H](COP(=O)(O)OP(=O)(O)OP(=O)(O)OC[C@]23O[C@@H]([n+]4cn(C)c5c(=O)[nH]c(N)nc54)C(O[C@H]2CC(F)F)C3O)O[C@H]1n1cnc2c(N)ncnc21 (stereo partly shown) | 38.3% |

* * *

ASSAY_REMARKS: Characterization of lipid nanoparticles encapsulating Fluc-mRNA
Type: physicochemical
PROTOCOL_CONDITIONS: encapsulation efficiency of LNP encapsulating Fluc-mRNA transcribed using the cap analog
Here the recorded EE is given for each entry.
MEASURED_PROPERTY: EE

| MOLECULE | RESULT |
| --- | --- |
| COC1C(OP(=O)([O-])OC[C@H]2O[C@@H](n3cnc4c(=O)[nH]c(N)nc43)C(O)C2O)[C@@H](COP(=O)(O)OP(=O)(O)OP(=O)(O)OC[C@]23O[C@@H]([n+]4cn(C)c5c(=O)[nH]c(N)nc54)C(O[C@H]2CCN(C)C)C3O)O[C@H]1n1cnc2c(N)ncnc21 (some centres unmarked) | 95.7% |
| COCC1C(O)[C@H]([n+]2cn(C)c3c(=O)[nH]c(N)nc32)O[C@@H]1COP(=O)(O)OP(=O)(O)OP(=O)(O)OC[C@H]1O[C@@H](n2cnc3c(N)ncnc32)C(OC)C1OP(=O)([O-])OC[C@H]1O[C@@H](n2cnc3c(=O)[nH]c(N)nc32)C(O)C1O (some centres unmarked) [HN3002, reference compound] | 94.8% |

* * *

SYSTEM: DCP2 enzyme (Schizosaccharomyces pombe, UniProt O13828)
Construct: purchased New England Biolabs
ASSAY_REMARKS: Decapping enzyme stability test
Type: biochemical
PROTOCOL_CONDITIONS: difference to HN3002
Procedure: 30 pmol of RNAs purified by polyacrylamide gel electrophoresis (PAGE) was subjected to an enzymatic reaction with 50 U of mRNA decapping enzyme (New England Biolabs) and 1×MDE buffer at 37° C. for 45 minutes. […] The electrophoresis band intensity ratio of RNA capping to RNA decapping was counted using ImageQuant (GE Healthcare) software, and the decapping rate of the decapping enzyme was calculated (as shown in Table 6).
Here the recorded decapping rate lower than that of HN3002 is given for each entry.

| COMPOUND | UNIT_ABBREV | decapping rate lower than that of HN3002 |
| --- | --- | --- |
| COC1C(OP(=O)([O-])OC[C@H]2O[C@@H](n3cnc4c(=O)[nH]c(N)nc43)C(O)C2O)[C@@H](COP(=O)(O)OP(=O)(O)OP(=O)(O)OC[C@]23O[C@@H]([n+]4cn(C)c5c(=O)[nH]c(N)nc54)C(O[C@H]2CCS(=O)(=O)N(C)C)C3O)O[C@H]1n1cnc2c(N)ncnc21 (stereo partly shown) [YK-CAP-006] | % | 12.0 |
| COC1C(OP(=O)([O-])OC[C@H]2O[C@@H](n3cnc4c(=O)[nH]c(N)nc43)C(O)C2O)[C@@H](COP(=O)(O)OP(=O)(O)OP(=O)(O)OC[C@]23O[C@@H]([n+]4cn(C)c5c(=O)[nH]c(N)nc54)C(O[C@H]2CC(F)F)C3O)O[C@H]1n1cnc2c(N)ncnc21 (stereo partly shown) [YK-CAP-004] | % | 12.9 |
| COC1C(OP(=O)([O-])OC[C@H]2O[C@@H](n3cnc4c(=O)[nH]c(N)nc43)C(O)C2O)[C@@H](COP(=O)(O)OP(=O)(O)OP(=O)(O)OC[C@]23O[C@@H]([n+]4cn(C)c5c(=O)[nH]c(N)nc54)C(O[C@H]2CC(=O)N(C)C)C3O)O[C@H]1n1cnc2c(N)ncnc21 (stereo partly shown) [YK-CAP-003] | % | 11.4 |
| COC1C(OP(=O)([O-])OC[C@H]2O[C@@H](n3cnc4c(=O)[nH]c(N)nc43)C(O)C2O)[C@@H](COP(=O)(O)OP(=O)(O)OP(=O)(O)OC[C@]23O[C@@H]([n+]4cn(C)c5c(=O)[nH]c(N)nc54)C(O[C@H]2CCS(C)(=O)=O)C3O)O[C@H]1n1cnc2c(N)ncnc21 (stereo partly shown) [YK-CAP-005] | % | 10.4 |

* * *

SYSTEM: DCP2 enzyme (Schizosaccharomyces pombe)
Construct: purchased New England Biolabs
Sequence (O13828 1-243 limits assumed): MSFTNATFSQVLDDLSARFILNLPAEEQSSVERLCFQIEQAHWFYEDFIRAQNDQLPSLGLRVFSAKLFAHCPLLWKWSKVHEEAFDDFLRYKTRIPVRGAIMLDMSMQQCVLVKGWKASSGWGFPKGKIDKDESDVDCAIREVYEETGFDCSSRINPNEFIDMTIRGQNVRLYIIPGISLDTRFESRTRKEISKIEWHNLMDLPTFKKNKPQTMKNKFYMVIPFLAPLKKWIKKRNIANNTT
Sequence (Q9P805 1-127 partner): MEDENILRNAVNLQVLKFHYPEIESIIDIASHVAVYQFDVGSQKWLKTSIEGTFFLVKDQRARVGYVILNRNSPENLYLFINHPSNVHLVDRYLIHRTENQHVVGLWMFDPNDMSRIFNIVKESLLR
Sequence (Q10108 155-180 partner limits assumed): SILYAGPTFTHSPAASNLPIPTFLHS
ASSAY_REMARKS: Decapping enzyme stability test
Assay type: biochemical
PROTOCOL_CONDITIONS: difference to YK-CAP-002
Here the recorded decapping rate lower than that of YK-CAP-002 is given for each entry.
MEASURED_PROPERTY: decapping rate lower than that of YK-CAP-002 (%)

| MOLECULE | UNIT_ABBREV | NUMERIC_RESULT |
| --- | --- | --- |
| COC1C(OP(=O)([O-])OC[C@H]2O[C@@H](n3cnc4c(=O)[nH]c(N)nc43)C(O)C2O)[C@@H](COP(=O)(O)OP(=O)(O)OP(=O)(O)OC[C@]23O[C@@H]([n+]4cn(C)c5c(=O)[nH]c(N)nc54)C(O[C@H]2CC(F)F)C3O)O[C@H]1n1cnc2c(N)ncnc21 (stereo partly shown) | % | 14.3 |
| COC1C(OP(=O)([O-])OC[C@H]2O[C@@H](n3cnc4c(=O)[nH]c(N)nc43)C(O)C2O)[C@@H](COP(=O)(O)OP(=O)(O)OP(=O)(O)OC[C@]23O[C@@H]([n+]4cn(C)c5c(=O)[nH]c(N)nc54)C(O[C@H]2CC(=O)N(C)C)C3O)O[C@H]1n1cnc2c(N)ncnc21 (stereo partly shown) | % | 12.8 |
| COC1C(OP(=O)([O-])OC[C@H]2O[C@@H](n3cnc4c(=O)[nH]c(N)nc43)C(O)C2O)[C@@H](COP(=O)(O)OP(=O)(O)OP(=O)(O)OC[C@]23O[C@@H]([n+]4cn(C)c5c(=O)[nH]c(N)nc54)C(O[C@H]2CCS(C)(=O)=O)C3O)O[C@H]1n1cnc2c(N)ncnc21 (stereo partly shown) | % | 11.8 |
| COC1C(OP(=O)([O-])OC[C@H]2O[C@@H](n3cnc4c(=O)[nH]c(N)nc43)C(O)C2O)[C@@H](COP(=O)(O)OP(=O)(O)OP(=O)(O)OC[C@]23O[C@@H]([n+]4cn(C)c5c(=O)[nH]c(N)nc54)C(O[C@H]2CCS(=O)(=O)N(C)C)C3O)O[C@H]1n1cnc2c(N)ncnc21 (stereo partly shown) | % | 13.4 |

Origin of the recorded values: patent US12551500B2
